assayRemarks: E. coli acrAB mutant growth effects, primary screen, E. coli filamentation inducers, strain DRC39, OD650, 48 h (AID 1179);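 note: screen aims at cell division blockers that make cells filament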
conditionSet: E. coli DRC39 delta-acrAB growth, higher = more signal, called active from +8 up or from −8 down
The source made the active and inactive calls.
Here, each record is paired with measured z-score data.

A selection of reference data follows.
molecule | valueMeasured
O=C1NC(=O)C2C1C=CC(C(O)CCc1ccccc1)N2Nc1ccc(Cl)cc1Cl (stereo not drawn) | -0.611 (inactive)
CCCCN1CC=CC23O[C@@H]4/C=C\CCC(C)OC(=O)C4[C@H]2C(=O)N(C(CO)C(C)C)[C@@H]3C1=O (stereo partly drawn) | 0.156 (inactive)
C=CCOC(=O)[C@H]1[C@@H]2C(=O)O[C@@H](c3ccccc3)[C@@H](c3ccccc3)N2[C@@H](c2ccc(OCCOC(=O)[C@@H]3C[C@@H]4C(=O)N[C@@H](CCCCNC(C)=O)C(=O)N4[C@@H]3c3ccc(O)cc3)cc2)[C@]12C(=O)Nc1ccc(I)cc12 | -1.25 (inactive)

# input For `Cc1ccc(S[C@]2(C(=O)NCC(F)(F)F)CC(=O)N(Cc3ccccc3)[C@@H]2c2ccc(CO)cc2I)cc1` , what is its reported z-score?
# output 0.562 (inactive)

# input // repeat for `COc1cccc(/C=C/C=O)c1` and report
# output 0.403 (inactive)

# input // repeat for `COC(=O)c1cn(C[C@@H](Cc2ccccc2)NC(=O)N[C@H](CO)CCc2oc(C(C)=O)c(C(=O)OC)c2C(=O)OC)nn1` and report
# output 0.604 (inactive)

# input // repeat for `CC(=O)NCCCC[C@@H]1NC(=O)[C@H]2C[C@@H](C(=O)NCCCC[N+](C)(C)C)[C@@H](c3cccc(OCCO)c3)N2C1=O` and report
# output -0.369 (inactive)

# input // repeat for `C[C@]1(C(=O)NC2CC2)c2ccccc2C(=O)N(Cc2ccccc2)[C@H]1c1ccc(CO)cc1` and report
# output 0.653 (inactive)

# input // repeat for `C=CCOC(=O)[C@H]1[C@@H]2C(=O)O[C@@H](c3ccccc3)[C@@H](c3ccccc3)N2[C@@H](c2ccc(OCCOC(=O)[C@@H]3C[C@@H]4C(=O)N[C@@H](CCCCN(C)C)C(=O)N4[C@@H]3c3ccc(O)cc3)cc2)[C@]12C(=O)Nc1ccccc12` and report
# output -0.628 (inactive)

# input // repeat for `COCCOC(=O)N1C(=O)[C@@]2(c3cc(C#CC4=CCCCC4)ccc31)[C@H](C(N)=O)[C@H]1C(=O)O[C@H](c3ccccc3)[C@H](c3ccccc3)N1[C@@H]2c1ccccc1OCCO` and report
# output -1.23 (inactive)
